# experimental.target: Tyrosinase (Agaricus bisporus)
# Sequence (O42713 whole entry): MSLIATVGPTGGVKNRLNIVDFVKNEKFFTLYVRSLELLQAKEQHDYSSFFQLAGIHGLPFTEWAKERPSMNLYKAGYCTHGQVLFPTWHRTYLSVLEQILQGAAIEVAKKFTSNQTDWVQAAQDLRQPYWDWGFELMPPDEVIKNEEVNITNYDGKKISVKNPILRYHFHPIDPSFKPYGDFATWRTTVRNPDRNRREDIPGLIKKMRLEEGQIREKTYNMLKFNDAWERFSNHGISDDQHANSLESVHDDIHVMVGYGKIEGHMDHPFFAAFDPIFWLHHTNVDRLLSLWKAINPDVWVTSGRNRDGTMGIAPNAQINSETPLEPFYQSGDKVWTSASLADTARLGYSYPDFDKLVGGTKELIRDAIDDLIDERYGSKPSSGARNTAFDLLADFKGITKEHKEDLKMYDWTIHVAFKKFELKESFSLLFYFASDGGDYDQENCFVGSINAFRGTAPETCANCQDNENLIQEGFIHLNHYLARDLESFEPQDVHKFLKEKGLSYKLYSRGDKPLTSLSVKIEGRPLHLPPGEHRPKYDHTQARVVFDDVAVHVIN
assay.readout: IC50 (µM)
Give the number; µM is assumed, so skip it.

Reported IC50 (Tyrosinase (Agaricus bisporus)) for entry CC1=CC[C@@H](C(C)(C)O[C@@H]2O[C@H](CO)[C@@H](O)[C@H](O)[C@H]2O)CC1 is 16.9

Just for reference, ChEMBL document CHEMBL3751802 is where these values come from.
